Quick list: percent infected per entry.
Test system: Sindbis virus TE/5'2J-GFP
protocol_description: percent infected (GFP+ in RFP+ ISG-expressing cells); higher = more infection (less antiviral activity)
assay_conditions: experiment: confirmatory screen 1; BHK/NZAP-Zeo (ZAP)

MLRAGAPTGDLPRAGEVHTGTTIMAVEFDGGVVMGSDSRVSAGEAVVNRVFDKLSPLHERIYCALSGSAADAQAVADMAAYQLELHGIELEEPPLVLAAANVVRNISYKYREDLSAHLMVAGWDQREGGQVYGTLGGMLTRQPFAIGGSGSTFIYGYVDAAYKPGMSPEECRRFTTDAIALAMSRDGSSGGVIYLVTITAAGVDHRVILGNELPKFYDE [PSMB9]	24.2%
MLQRGLWPWRTRLLPTPGTWRPARPWPLPPPPQVLRVKLCGNVKYYQSHHYSTVVPPDEITVIYRHGLPLVTLTLPSRKERCQFVVKPMLSTVGSFLQDLQNEDKGIKTAAIFTADGNMISASTLMDILLMNDFKLVINKIAYDVQCPKREKPSNEHTAEMEHMKSLVHRLFTILHLEESQKKREHHLLEKIDHLKEQLQPLEQVKAGIEAHSEAKTSGLLWAGLALLSIQGGALAWLTWWVYSWDIMEPVTYFITFANSMVFFAYFIVTRQDYTYSAVKSRQFLQFFHKKSKQQHFDVQQYNKLKEDLAKAKESLKQARHSLCLQMQVEELNEKN [CCDC109B]	57.4%

API: the following record is the query input.
Record summary for MALLDVCGAPRGQRPESALPVAGSGRRSDPGHYSFSMRSPELALPRGMQPTEFFQSLGGDGERNVQIEMAHGTTTLAFKFQHGVIAAVDSRASAGSYISALRVNKVIEINPYLLGTMSGCAADCQYWERLLAKECRLYYLRNGERISVSAASKLLSNMMCQYRGMGLSMGSMICGWDKKGPGLYYVDEHGTRLSGNMFSTGSGNTYAYGVMDSGYRPNLSPEEAYDLGRRAIAYATHRDSYSGGVVNMYHMKEDGWVKVESTDVSDLLHQYREANQ [PSMB8] : reported percent infected = 64.8%

###

System: Sindbis virus TE/5'2J-GFP
protocol_description: percent infected (GFP+ in RFP+ ISG-expressing cells); higher = more infection (less antiviral activity)
assay_conditions: experiment: confirmatory screen 2; BHK/NZAP-Zeo (ZAP)
measure_name: percent infected
Please give the number followed by its unit.

Record summary for MALLLALSLLVLWTSPAPTLSGTNDAEDCCLSVTQKPIPGYIVRNFHYLLIKDGCRVPAVVFTTLRGRQLCAPPDQPWVERIIQRLQRTSAKMKRRSS [CCL19] : reported percent infected = 95.1%

###

Quick list: percent infected per entry.
Test system: Sindbis virus TE/5'2J-GFP;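 further: Interferon-defective BHK-21 derivatives, ZAP line overexpressing the rat ZAP N-terminal zinc finger domain fused to Zeocin resistance, GFP scored within live singlet TagRFP+ cells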
protocol_description: percent infected (GFP+ in RFP+ ISG-expressing cells); higher = more infection (less antiviral activity)
assay_conditions: experiment: confirmatory screen 3; BHK/HA-Zeo (control)
Return type: number; implicit unit %.

MNTIVFNKLSGAVLFEDGGASERERGGRPYSGVLDSPHARPEVGIPDGPPLKDNLGLRHRRTGARQNGGKVRHKRQALQDMARPLKQWLYKHRDNPYPTKTEKILLALGSQMTLVQVSNWFANARRRLKNTVRQPDLSWALRIKLYNKYVQGNAERLSVSSDDSCSEDGENPPRTHMNEGGYNTPVHHPVIKSENSVIKAGVRPESRASEDYVAPPKYKSSLLNRYLNDSLRHVMATNTTMMGKTRQRNHSGSFSSNEFEEELVSPSSSETEGNFVYRTDTLENGSNKGESAANRKGPSKDDTYWKEINAAMALTNLAQGKDKLQGTTSCIIQKSSHIAEVKTVKVPLVQQF [MKX]	79

API: the following record is the query input.
So the reported percent infected for MQEGELAISPISPVAAMPPLGTHVQARCEAQINLLGEGGICKLPGRLRIQPALWSREDVLHWLRWAEQEYSLPCTAEHGFEMNGRALCILTKDDFRHRAPSSGDVLYELLQYIKTQRRALVCGPFFGGIFRLKTPTQHSPVPPEEVTGPSQMDTRRGHLLQPPDPGLTSNFGHLDDPGLARWTPGKEESLNLCHCAELGCRTQGVCSFPAMPQAPIDGRIADCRLLWDYVYQLLLDTRYEPYIKWEDKDAKIFRVVDPNGLARLWGNHKNRVNMTYEKMSRALRHYYKLNIIKKEPGQKLLFRFLKTPGKMVQDKHSHLEPLESQEQDRIEFKDKRPEISP [ETV7] , on Sindbis virus TE/5'2J-GFP, turned out to be 93

Values were extracted from the supplement of paper PMC3353916.
